subject-of-test: T1, ZFP SBS#370 (synthetic)
T1 chain: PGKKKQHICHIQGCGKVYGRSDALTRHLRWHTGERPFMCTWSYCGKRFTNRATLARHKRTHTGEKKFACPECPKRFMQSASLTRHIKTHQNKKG
method-summary: EMSA
setup-conditions: tags: MBP fusion
endpoint-label: pKd
API: returns pKd as number; meaning -log10 of concentration in mol/L.

**Query** Assign pKd to the following record: GTAGTTGTG (dsDNA) DNA 1: GTAGTTGTG DNA 2: CACAACTAC
**Result** 6.52

Hello, the source for this data is patent US20030068675, in case you need it.
